B1: KLHL20 (parent)
chain: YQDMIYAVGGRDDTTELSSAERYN

Variants of: B1
PROCEDURE_DETAILS: protein stability index of a GFP-peptide fusion (GPS, HEK-293T) (PSI 1-6); higher = more stable;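 also: lentivirally expressed fusions sorted by FACS into six bins by GFP to DsRed ratio, PSI derived from sequencing read proportions per bin multiplied by bin number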
SETUP_CONDITIONS: c terminus: a fixed tail appended
Reported protein stability index values for the following variants.
Lab note: write the figure by itself, no unit.

Worked examples, 3 variants total:
// protein stability index lookup, variant = V8G , result: 2.81

// protein stability index lookup, variant = S18P , result: 2.1

// protein stability index lookup, variant = M4R , result: 2.75

---
// protein stability index lookup, variant = Y23P , result: 2.72

// protein stability index lookup, variant = T15N , result: 2.33

Origin of the recorded values: the supplement of paper PMC10567573
